Ref: PubChem BioAssay (NCI)

# System: SNB-75 CNS
# EXPERIMENTAL PROTOCOL: NCI-60 one-dose screen, 48 h
# DETAILS: 10 µM unless noted
About 83,000 compounds went through this panel and 20% of them were active in at least one assay; those are over-represented in the sample as a whole. The source made the active and inactive calls. Rule for the calls: active = growth percent below 10; inactive = the rest.
Hi! Could you answer with just one of these? active, inactive

>>> df
                                   compound  classification
0  COc1cc(OC)c2c(c1Cl)O[C@]1(C2=O)C(OCc2ccccc2)=CC(=O)C[C@H]1C        inactive

Query string: How did this test come out for CCCc1n(Cc2ccc3ccccc3c2)cc[n+]1Cc1ccc2ccccc2c1 ?
Result string: active

Query string: O=C1NC(=O)/C(=C\c2ccco2)S1 , same question.
Result string: inactive

Query string: O=C(O)C1C(c2ccccc2)c2ccccc2C(O)C1CO (stereo unspecified) , same question.
Result string: inactive

Query string: O=C(Nc1ccc(Cl)cc1)Nc1nc2ccc(OC(F)(F)F)cc2o1 , same question.
Result string: inactive

Query string: Cc1ccc(-c2c3c(N)c4c(nc3nc3c2c(C)nn3-c2ccccc2)CCC4)cc1 , same question.
Result string: inactive

Query string: C[C@]12CCC(=O)C=C1CC[C@H]1[C@@H]3C[C@@H](O)[C@](O)(C(=O)CO)[C@@]3(C)C[C@H](O)[C@@]12F , same question.
Result string: inactive

Query string: COc1cnc2c(c1)C(=O)c1c-2n(CCCN2CCOCC2)c(=O)c2cc(F)ccc12 , same question.
Result string: active

Query string: O=C(Nc1nn2c(-c3cc(C(F)(F)F)cc(C(F)(F)F)c3)nnc2s1)C1CCCC1 , same question.
Result string: inactive
